From: patent US20250270319A1

Items are presented alongside their recorded koff.
# assay-target: T1, recombinant human CD33 protein (Sino Biologicals) (human, UniProt P20138 18-259)
# T1 construct: Bought protein; also called recombinant CD33
# T1 sequence (P20138 18-259 limits assumed): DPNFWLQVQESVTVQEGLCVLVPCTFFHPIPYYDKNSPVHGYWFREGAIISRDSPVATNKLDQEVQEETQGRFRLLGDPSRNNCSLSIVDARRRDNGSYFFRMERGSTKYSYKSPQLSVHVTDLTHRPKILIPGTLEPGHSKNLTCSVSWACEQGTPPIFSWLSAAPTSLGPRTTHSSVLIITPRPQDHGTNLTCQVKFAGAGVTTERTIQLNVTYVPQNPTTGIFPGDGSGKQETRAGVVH
# assay-summary: BLI (ForteBio), antibody on anti-human Fc sensor, CD33 10 nM
# Description: Affinity parameters of the antibody variants for human CD33 were measured by BioLayer Interferometry in a ForteBio assay according to standard techniques (Estep et al. (2013) MAbs 5(2): 270-8) and were compared to those of the parental antibody (antibody 6C7H8) and the parental humanized antibody (antibody 6C71H5). Briefly, the antibodies were captured on anti-human Fc Biosensors (Pall ForteBio). […] Apparent affinity constants (KD) were calculated from the ratio kd/kₐ.

| binder | readout-unit | koff |
| --- | --- | --- |
| anti-CD33 antibody 6C7H5 (antibody, V domains shown, Humanized 6C7; VH/VL only; also called parental humanized antibody) VH: EVQLVESGGGLVQPGGSLRLSCAGSGFTFSNYCMNWVRQAPGKGLEWVAEIRLKSNNYVTNYAASVKGRFTISRDDSKNSVYLQMNSLKTEDTGVYYCTRDGYYVPFAYWGQGTLVTVSS VL: QLVLTQSPSASASLGASVKLTCTLSSQHSTYTIEWYQQQPEKGPRYLMELKKDGSHSTGDGIPDRFSGSSSGAERYLTISSLQSEDEADYYCGVGDTIKEQFVYVFGGGTKLTVL | s⁻¹ | 0.00012 |
| anti-CD33 antibody 6C7H12 (antibody, V domains shown, VH/VL only) VH: EVQLVESGGGLVQPGGSLRLSCAGSGFTFSNYGMNWVRQAPGKGLEWVAEIRLKSNNYVTNYAASVKGRFTISRDDSKNSVYLQMNSLKTEDTGVYYCTRAGYYVPFAYWGQGTLVTVSS VL: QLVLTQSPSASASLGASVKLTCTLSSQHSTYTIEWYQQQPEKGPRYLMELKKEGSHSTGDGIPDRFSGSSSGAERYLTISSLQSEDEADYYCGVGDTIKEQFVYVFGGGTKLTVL | s⁻¹ | 0.000694 |
| anti-CD33 antibody 6C7H17 (antibody, V domains shown, VH/VL only) VH: EVQLVESGGGLVQPGGSLRLSCAGSGFTFSNYYMNWVRQAPGKGLEWVAEIRLKSNNYVTNYAASVKGRFTISRDDSKNSVYLQMNSLKTEDTGVYYCTRAGYYVPFAYWGQGTLVTVSS VL: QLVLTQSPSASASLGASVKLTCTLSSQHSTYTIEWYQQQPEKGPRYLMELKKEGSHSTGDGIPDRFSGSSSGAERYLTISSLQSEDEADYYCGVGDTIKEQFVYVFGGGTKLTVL | s⁻¹ | 0.000523 |
| anti-CD33 antibody 6C7H23 (antibody, V domains shown, VH/VL only) VH: EVQLVESGGGLVQPGGSLRLSCAGSGFTFSNYVMNWVRQAPGKGLEWVAEIRLKSNNYVTNYAASVKGRFTISRDDSKNSVYLQMNSLKTEDTGVYYCTRAGYYVPFAYWGQGTLVTVSS VL: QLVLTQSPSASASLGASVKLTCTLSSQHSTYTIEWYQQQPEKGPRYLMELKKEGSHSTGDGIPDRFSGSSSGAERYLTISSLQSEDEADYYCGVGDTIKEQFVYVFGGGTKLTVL | s⁻¹ | 0.000691 |
| anti-CD33 antibody 6C7H16 (antibody, V domains shown, VH/VL only) VH: EVQLVESGGGLVQPGGSLRLSCAGSGFTFSNYLMNWVRQAPGKGLEWVAEIRLKSNNYVTNYAASVKGRFTISRDDSKNSVYLQMNSLKTEDTGVYYCTRAGYYVPFAYWGQGTLVTVSS VL: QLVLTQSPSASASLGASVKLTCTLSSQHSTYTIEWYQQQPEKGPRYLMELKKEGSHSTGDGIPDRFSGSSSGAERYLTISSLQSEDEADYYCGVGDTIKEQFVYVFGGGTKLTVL | s⁻¹ | 0.00102 |
